Listing: inhibition at 20 µM of selected compounds
Biological target: UniProtKB P27338
Sequence (P27338 whole entry): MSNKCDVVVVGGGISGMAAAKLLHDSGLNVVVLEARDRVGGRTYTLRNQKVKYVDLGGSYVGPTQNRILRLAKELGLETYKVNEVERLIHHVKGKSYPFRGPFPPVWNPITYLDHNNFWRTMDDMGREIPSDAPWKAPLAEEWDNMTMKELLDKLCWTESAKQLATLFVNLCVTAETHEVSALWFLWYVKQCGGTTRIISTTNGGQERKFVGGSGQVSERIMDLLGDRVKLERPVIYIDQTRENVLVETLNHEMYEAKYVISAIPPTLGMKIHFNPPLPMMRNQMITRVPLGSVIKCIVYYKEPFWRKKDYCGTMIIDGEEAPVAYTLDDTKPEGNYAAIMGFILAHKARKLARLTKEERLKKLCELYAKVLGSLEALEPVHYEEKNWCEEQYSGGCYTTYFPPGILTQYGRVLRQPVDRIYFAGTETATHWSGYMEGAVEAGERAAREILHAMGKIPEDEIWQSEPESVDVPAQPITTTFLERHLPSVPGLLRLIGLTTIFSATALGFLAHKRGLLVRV
Test: Inhibition of recombinant MAO-B (unknown origin) at 20 uM preincubated for 30 mins followed substrate addition by Amplex Red reagent based fluorescence analysis relative to control
// return numeric value only (unit: %, not printed)

// solved cases for inhibition at 20 µM follow
| Smiles structure | Reported value |
| --- | --- |
| C#CCCCOc1c(CN(C)Cc2ccccc2)cc(-c2cc(=O)c3ccccc3o2)cc1OC | 17.5 |
| C#CCCOc1c(CN2CCOCC2)cc(-c2cc(=O)c3ccccc3o2)cc1OCC | 6.89 |
| C#CCCCOc1c(CN2CCOCC2)cc(-c2cc(=O)c3ccccc3o2)cc1OCC | 18.2 |

Enter recorded inhibition at 20 µM with UniProtKB P27338 for C#CCCCOc1c(CN2CCCCC2)cc(-c2cc(=O)c3ccccc3o2)cc1OCC here.
15.6
